# Tgt: GST-Bc1-2 (Homo sapiens)
# Sequence (P10415 whole entry): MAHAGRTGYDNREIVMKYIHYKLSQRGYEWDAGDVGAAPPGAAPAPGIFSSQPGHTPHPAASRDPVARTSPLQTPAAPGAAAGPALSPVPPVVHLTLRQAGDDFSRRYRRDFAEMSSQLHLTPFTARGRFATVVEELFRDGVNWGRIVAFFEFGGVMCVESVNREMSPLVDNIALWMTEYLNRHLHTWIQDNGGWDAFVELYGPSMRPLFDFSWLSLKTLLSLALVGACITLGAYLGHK
# Assay Protocol: Time Resolved-Fluorescence Resonance Energy Transfer (TR-FRET) Bcl-2 binding assay with F-Bak peptide probe
# Condition Context: GST-Bcl-2 1 nM, F-Bak probe 100 nM, Tb-anti-GST 1 nM; '<' = below limit of detection; read-out: TR-FRET Bcl-2 Binding Ki
Readout Name: pKi
Entry type: numeric. Quantity: pKi, the -log10 of concentration in molar units.

Examples from the recorded data:
[[record]]
smiles_data = "CC1(C)CCC(CC2CCN(c3ccc(C(=O)NS(=O)(=O)c4ccc(NCC5CCOCC5)c([N+](=O)[O-])c4)c(Oc4cnc5[nH]ccc5c4)c3)CC2)=C(c2ccc(Cl)cc2)C1"
readout_value = 10.28

[[record]]
smiles_data = "CC1(C)CCC(CN2CCN(c3ccc(C(=O)NS(=O)(=O)c4cnc(OCC5(F)CCN(CC#N)CC5)c(Cl)c4)c(Oc4cnc5[nH]ccc5c4)c3)CC2)=C(c2ccc(Cl)cc2)C1"
readout_value = 10.28


*Q* Looking for the measured pKi of CC1(C)CCC(CN2CCN(c3ccc(C(=O)NS(=O)(=O)c4ccc(OCC#CCN5CCOCC5)c([N+](=O)[O-])c4)c(Oc4cnc5[nH]ccc5c4)c3)CC2)=C(c2ccc(Cl)cc2)C1 , can you help?
*A* 10.92

*Q* Looking for the measured pKi of CC1(C)CCC(CN2CCN(c3ccc(C(=O)NS(=O)(=O)c4ccc(NC5CCN(C6CC6)CC5)c(S(=O)(=O)C(F)(F)F)c4)c(Oc4cnc5[nH]ccc5c4)c3)CC2)=C(c2ccc(Cl)cc2)C1 , can you help?
*A* 10.59

*Q* Looking for the measured pKi of COC1(Cc2ccccc2-c2ccc(Cl)cc2)CCN(c2ccc(C(=O)NS(=O)(=O)c3ccc(NCC4CCOCC4)c([N+](=O)[O-])c3)c(Oc3cnc4[nH]ccc4c3)c2)CC1 , can you help?
*A* 10.44

*Q* Looking for the measured pKi of CC1(C)CCC(CC2CCN(c3ccc(C(=O)NS(=O)(=O)c4cnc(OCC5(O)CCC(F)(F)CC5)c(Cl)c4)c(Oc4cnc5[nH]ccc5c4)c3)CC2)=C(c2ccc(Cl)cc2)C1 , can you help?
*A* 9.48

All figures here come from patent US8580794B2.
